These data points were gathered from the supplement of paper PMC5998384.

Here, each record is paired with measured thermal stability score data.
# Tested on: HeLa Kyoto;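 further: synchronized HeLa Kyoto cells, proteins quantified by TMT10plex mass spectrometry, three biological replicates, mitosis taken 0.5 h after nocodazole release, G1/S directly after double thymidine block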
# Assay explanation: thermal stability score vs G1/S (z-score of summed log2 fold changes over temperatures); higher = more thermally stable than in G1/S
# Run parameters: cell cycle stage: mitosis
The reply should be a number, written without any unit.

Completed entries (count: 2):
Chain sequence: MSEVKSRKKSGPKGAPAAEPGKRSEGGKTPVARSSGGGGWADPRTCLSLLSLGTCLGLAWFVFQQSEKFAKVENQYQLLKLETNEFQQLQSKISLISEKWQKSEAIMEQLKSFQIIAHLKRLQEEINEVKTWSNRITEKQDILNNSLTTLSQDITKVDQSTTSMAKDVGLKITSVKTDIRRISGLVTDVISLTDSVQELENKIEKVEKNTVKNIGDLLSSSIDRTATLRKTASENSQRINSVKKTLTELKSDFDKHTDRFLSLEGDRAKVLKTVTFANDLKPKVYNLKKDFSRLEPLVNDLTLRIGRLVTDLLQREKEIAFLSEKISNLTIVQAEIKDIKDEIAHISDMN [IKBIP]
Assay result: 4.37
--
Chain sequence: MTDYGEEQRNELEALESIYPDSFTVLSENPPSFTITVTSEAGENDETVQTTLKFTYSEKYPDEAPLYEIFSQENLEDNDVSDILKLLALQAEENLGMVMIFTLVTAVQEKLNEIVDQIKTRREEEKKQKEKEAEEAEKQLFHGTPVTIENFLNWKAKFDAELLEIKKKRMKEEEQAGKNKLSGKQLFETDHNLDTSDIQFLEDAGNNVEVDESLFQEMDDLELEDDEDDPDYNPADPESDSAD [RWDD1]
Assay result: 0.947

Now turn to the next sequence.
Asked: Can you share its thermal stability score? I mean this sequence: MAAPGLRLGAGRLFEMPAVLERLSRYNSTSQAFAEVLRLPKQQLRKLLYPLQEVERFLAPYGRQDLHLRIFDPSPEDIARADNIFTATERNRIDYVSSAVRIDHAPDLPRPEVCFIGRSNVGKSSLIKALFSLAPEVEVRVSKKPGHTKKMNFFKVGKHFTVVDMPGYGFRAPEDFVDMVETYLKERRNLKRTFLLVDSVVGIQKTDNIAIEMCEEFALPYVIVLTKIDKSSKGHLLKQVLQIQKFVNMKTQGCFPQLFPVSAVTFSGIHLLRCFIASVTGSLD [GTPBP8]
Given back: 0.105
